System: HS 578T breast
Experiment: NCI-60 one-dose screen, 48 h (100 = growth as untreated, 0 = no growth, -100 = all killed)
Conditions: 10 µM
Compounds without any hit were thinned out: in the full panel of roughly 83,000, 20% have a hit.
Quick rule: growth of at least 50% means rule met, below that means rule not met.

> print(dat)
                                   compound  class.name
1  CN1CCO/C1=C(/NC(=O)c1ccc(Cl)cc1)[P+](c1ccccc1)(c1ccccc1)c1ccccc1    rule met

In plain terms: is recorded growth at least 50% for `O=C(CSc1nnc(-c2ccc3nc(-c4ccccc4)[nH]c3c2)o1)Nc1ccc(Br)cc1` ?
rule met

In plain terms: is recorded growth at least 50% for `O=c1cc(-c2ccccc2)oc2cc(OCCCNCc3ccccc3)cc(O)c12` ?
rule not met

---

Can you tell me growth for the items I'm about to list?
System: NCI-H460 lung
Experiment: NCI-60 one-dose screen, 48 h (100 = growth as untreated, 0 = no growth, -100 = all killed)
Details: 10 µM
This is part of a sample that, as a whole, favours compounds with a hit. Of some 83,000 tested, about 20% had one in any assay.
One number for each entry, in %.

COMPOUND	growth / %
COc1ccccc1[C@H]1C(C(=O)c2ccc(Cl)cc2)C2(N[C@@H]1c1ccccc1)C(=O)Nc1ccccc12 (stereo partly drawn)	-27.2
CC1(c2ccccc2)NC(=O)N(CC(=O)Nc2ccc(C(=O)/C=C/c3ccc(Cl)cc3)cc2)C1=O (stereo not drawn)	21.5
O=C1Nc2ccc(Cl)cc2/C1=C/c1cccc(OCc2ccccn2)c1	-16.2
Cc1ccc(/C=C(\C#N)n2nnc3c(F)cccc32)cc1	3.45
Clc1ccc2c(N/N=C/c3c[nH]c4ccc(Br)cc34)ccnc2c1	9.83

Okay, here is my list. What is growth for each of these?
1. COc1ccc(N(C)c2cc(C#N)nc3ccccc23)cc1/C=C/C(=O)NO
2. CC(C)(C)c1ccc(NCc2cn(-c3ccc(C(=O)O)cc3)nc2-c2ccc(C#N)cc2)cc1
3. CCOP(=O)(OCC)O[C@H]1CCC(=O)[C@@H]2[C@H]1[C@H]1C[C@@H]3[C@@]4(C)CCCC(C)(C(=O)OC)[C@@H]4CC[C@@]23C=C1C(C)C (stereo partly drawn)

1. 0.587
2. 11.6
3. 66.4

Okay, here is my list. What is growth for each of these?
1. O=C1Nc2ccc(Cl)cc2/C1=C/c1cccc(OCc2ccccc2)c1
2. O=C(CSc1nnc(-c2c[nH]c3ccccc23)n1-c1ccccc1)c1ccc(Cl)cc1
3. COc1cccc(-c2ccc(/C=N/NC(=O)c3[nH]c4ccc(Br)cc4c3-c3ccccc3)o2)c1
4. CNC(=O)c1cccc(N2CCc3c2ccc(NC(=O)Nc2ccc(N4CCN(C)CC4)c(C(F)(F)F)c2)c3F)c1
5. O=c1[nH]n(C(=S)N/N=C/c2ccc(F)cc2)c(=O)c2ccccc12
6. COc1ccc2[nH]c(=O)c(CSc3nccc(-c4ccc(Cl)cc4)n3)cc2c1
7. O=C(NO)c1ccc(CN2CCN(c3nc(-c4ccccc4)c4ccccc4n3)CC2)cc1

1. 13.5
2. 60.1
3. 4.13
4. -81
5. 55.9
6. 9.38
7. 6.1

Okay, here is my list. What is growth for each of these?
1. COc1ccc(CN2[C@@H](C(=O)NCc3ccc(C(=O)NO)cc3)Cc3c([nH]c4ccccc34)[C@@H]2C2CC2)cc1
2. Cc1ccc(-c2nc3ccc(C(=O)N=Nc4c(O)[nH]c5ccc(Br)cc45)cc3[nH]2)cc1
3. N#Cc1ccc(-c2nn(-c3ccc(C(=O)O)cc3)cc2CNc2cc(Cl)cc(C(F)(F)F)c2)cc1

13.7
47.8
6.19

---

Can you tell me growth for the items I'm about to list?
Tested on: HOP-62 NSCLC
Test: NCI-60 one-dose screen, 48 h (100 = growth as untreated, 0 = no growth, -100 = all killed)
Conditions: 10 µM
This is part of a sample that, as a whole, favours compounds with a hit. Of some 83,000 tested, about 20% had one in any assay.
One number for each entry, in %.

Consider the worked cases shown below.
> print(dat)
                                   compound  measurement.kind  unit  test.value
1  Cc1nn(-c2ccccc2)c2ncn(CC(=O)N/N=C/c3c[nH]c4ccccc34)c(=O)c12            growth     %        95.6
2  C=C1CCC2C3(C)COC(c4c(F)cccc4F)OC3CCC2(C)C1C/C=C1/C(=O)OCC1O (centres undefined)            growth     %       -13.7
3  CCCCCCCCCCCCCCCCCCCC(=O)NCCc1c[nH]c2ccc(O)cc12            growth     %         144
4  COc1ccc(C(=O)/C=C/c2cc(C(F)(F)F)cc(C(F)(F)F)c2)cc1S(N)(=O)=O            growth     %       -44.7
5  CN1C(=O)N(C)C2SC(N/N=C/c3cccs3)=NC21 (centres undefined)            growth     %        37.7
6  Cn1c(O)c(N=Nc2nc(-c3cc4ccccc4oc3=O)cs2)c2cc(Br)ccc21            growth     %        12.1
7  O=C(Cn1cc(CSc2nnc3oc4ccccc4n23)nn1)Nc1cccc(Cl)c1            growth     %        72.9
8  C/C(=N\N=C\c1ccc(Cl)c([N+](=O)[O-])c1)c1ccc2c(c1)Nc1ccccc1S2            growth     %        47.5

Note: attention shifts to another entry.
Please provide the recorded growth for `Cc1ccc(C(=O)Nc2ccc(-n3c(C)nc4c(cnn4-c4ccccc4)c3=O)cc2)cc1` , tested on HOP-62 NSCLC.
78.8

---

System: OVCAR-4 ovarian
Experiment: NCI-60 one-dose screen, 48 h (100 = growth as untreated, 0 = no growth, -100 = all killed)
Conditions: 10 µM
Protocol: Growth inhibition of the OVCAR-4 human tumor cell line is measured as a screen for anti-cancer activity. Cells are grown in 96 well plates and exposed to the test compound for 48 hours. Compounds are tested at a single concentration, which is 10^-5 M for most compounds. The reported endpoint is percent growth (GI% or GIPRCNT), where numbers from 0 - 100% represent growth inhibition, and numbers from -100% - 0 represent cell death. For example, a value of 40 represents 60% growth inhibition. […]
Compounds without any hit were thinned out: in the full panel of roughly 83,000, 20% have a hit.
Can you tell me growth for the items I'm about to list?
Numbers only, in %.

> print(dat)
                                   compound  test.value
1  COc1ccccc1[C@H]1C(C(=O)c2ccc(Cl)cc2)C2(N[C@@H]1c1ccccc1)C(=O)Nc1ccccc12 (stereo partly drawn)        24.8
2  O=S(=O)(Nc1ncccn1)c1ccc(-n2c(-c3ccc(Br)cc3)nc(-c3ccccc3)c2-c2ccccc2)cc1        57.7
3                       Nc1nc(-c2ccccc2)cs1        59.4
4  CCOC(=O)C1=C(N)N(c2ccc(C)cc2)C2=C(C(=O)CC(C)(C)C2)C1c1ccccc1OC (stereo not drawn)         108
5  Cc1ccc(-c2nc(Nc3ccc(S(N)(=O)=O)cc3)c3ccccc3n2)cc1        61.7
6  N#Cc1ccc(NC(=O)CSc2ccc(-c3ccc(Br)cc3)nn2)cc1          59

Okay, here is my list. What is growth for each of these?
1. Cc1noc2c(Cc3ccccc3)nn(CC(=O)N/N=C/c3ccc(Cl)cc3)c(=O)c12
2. Cc1ccc(/C=C/C(=O)c2ccc(NC(=O)CSc3nnc(-c4c[nH]c5ccccc45)n3-c3ccccc3)cc2)c(C)c1

1: -59.5; 2: 13.1

Okay, here is my list. What is growth for each of these?
1. CC(=C(c1ccc(OCCCN(C)C)cc1)c1ccc(OCCCN(C)C)cc1)c1ccccc1
2. CC1=N/C(=C\c2ccc(N(C)C)cc2)C(=O)N1CCc1ccc(S(N)(=O)=O)cc1
3. COc1cc2c3c(n(CCCn4ccnc4)c(=O)c2cc1OC)-c1nc2c(cc1C3=O)OCO2

-96.9
99.7
80.9

Okay, here is my list. What is growth for each of these?
1. Cc1ccc(NC(=O)NCn2c(=O)[nH]c3ccccc3c2=O)cc1
2. C=C1CC[C@H](C(=C)C)[C@H]2C=C(C)C(=O)C3=C(C(=O)[C@@](C)(O)C3)[C@H]12
3. CCOC(=O)C1=C(N)N(c2ccccc2)C2=C(C(=O)CC(C)(C)C2)C1c1ccc(Cl)cc1 (stereo not drawn)
4. O=C1NC(=NC23CC4CC(CC(C4)C2)C3)N/C1=C\c1ccc2ncoc2c1

50.8
-81.8
29.3
13.4

Okay, here is my list. What is growth for each of these?
1. N#Cc1c(NC(=O)c2ccc(C(O)(C(F)(F)F)C(F)(F)F)cc2)sc2c1CCC(=O)C2
2. Cc1nc2c(cnn2-c2ccccc2)c(=O)n1-c1ccc(NC(=O)c2ccc(F)cc2)cc1

1: -29.6; 2: 40.1
